Please go through the items and note down their Growth Rate.
- Tested on: U2OS
- PROTOCOL_DETAILS: Incucyte cell viability with U2OS; note: unitless GR value; below 1 slowed growth and below 0 cell loss
- Type: toxicity, cell-based
- TEST_SETTINGS: human, 18 h, 10 µM, compound concentration 10 uM, replicate number 2
Numbers only.

Illustrative cases are given below, each with its answer.
MOLECULE | Growth Rate
CCOc1cc(CC(=O)N[C@@H](CC(C)C)c2ccccc2N2CCCCC2)ccc1C(=O)O [REPAGLINIDE] | 0.96
CC(=O)N1CCC(c2ccc(C(=O)NC3=NCCN3)cc2C(F)(F)F)CC1 [BI 0054] | 0.92
Cn1cnc(Cn2ccc3ccc(CNCc4[nH]c5ccccc5c4[C@@H]4NC(=O)c5ccc(O)cc54)cc32)c1 | 0.85

# input for lookup
Data request: I am curious: what Growth Rate value has been reported for Cc1c(N2CCCC2)nc2ccc(Br)cc2c1C(=O)NC[C@H](CCC(=O)O)c1ccccc1Cl.Cl.O ?
Data returned: 0.99

The origin of these recorded values is ChEMBL document CHEMBL5303304.
